Experiment: Pharmacokinetics of free crystal form A in Beagle dogs (i.v. and intragastric)
Format: in vivo
Conditions: dog, plasma, po; read-out: average time to peak drug concentration
Experimental: Preparations were administered to the group C on the second day to the seventh day were prepared in the same way as that on the first day. All the animals in this experiment were randomly divided into 4 groups (3 dogs/sex/group). […] The drug concentration in the plasma of each Beagle dog was determined by liquid chromatography with tandem mass spectrometry (LC-MS/MS). […]
MEASURED ATTRIBUTE: Tmax

For the compound CC[S@@](=N)(=O)C[C@H]1CC[C@H](N(C)c2ncnc3[nH]ccc23)CC1 [Free crystal form A] , what Tmax is on record?
0.792 to 1.33 h

----------
Experiment: Pharmacokinetics of hydrochloride crystal form A in Beagle dogs (intragastric)
Type: in vivo
Settings: dog, plasma, po, 6 mg/kg
Where a name gives a salt, the structure may show the parent alone.
MEASURED ATTRIBUTE: k el (s⁻¹)
API: value field is a number in s⁻¹; no unit string.

For the molecule CC[S@@](=N)(=O)C[C@H]1CC[C@H](N(C)c2ncnc3[nH]ccc23)CC1 [Hydrochloride crystal form A] , what k el is on record?
5.39e-05

----------
Assay: Urine and fecal excretion after single intragastric administration
Settings: dog, urine, feces, cage rinse, po, 6 mg/kg
MEASURED ATTRIBUTE: dose excreted at 120 h

For the compound CC[S@@](=N)(=O)C[C@H]1CC[C@H](N(C)c2ncnc3[nH]ccc23)CC1 [Free crystal form A] , what dose excreted at 120 h is on record?
52.2%

----------
Experiment: Urine and fecal excretion after single intragastric administration
Conditions: dog, urine, po, 6 mg/kg
MEASURED ATTRIBUTE: dose excreted at 120 h (%)
API: value field is a number in %; no unit string.

For the compound CC[S@@](=N)(=O)C[C@H]1CC[C@H](N(C)c2ncnc3[nH]ccc23)CC1 [Free crystal form A] , what dose excreted at 120 h is on record?
43.8
